Would you kindly list AC50 for each of these molecules?
System: Clone20 osteoblast Shn3 3'UTR firefly luciferase, 24 h
Assay: Shn3 3'UTR reporter inhibitors, dose response, cell-based, Clone20 osteoblasts, luminescence, dry powder, set 2 (AID 743417)
Results filed as inconclusive are left out.

If you can, please state the reported AC50 value of CCCCNc1cc(C)nc(NCc2ccccc2)n1 . 0.719 µM

If you can, please state the reported AC50 value of O=C(NCc1ccc2c(c1)OCO2)c1nc(S(=O)(=O)Cc2ccccc2F)ncc1Cl . 5.19 µM

If you can, please state the reported AC50 value of Nc1nc(Cl)cc(N2CCC(c3cc(-c4ccc(Cl)cc4Cl)n[nH]3)CC2)n1 . 4.94 µM

If you can, please state the reported AC50 value of Cc1cc2nc(C)n(CCCNC(=O)Nc3cccc4ccccc34)c2cc1C . 3.19 µM

If you can, please state the reported AC50 value of Cc1cc(NC(c2ccc(Cl)cc2)c2ccc3cccnc3c2O)no1 (configuration not stated) . 1.05 µM

If you can, please state the reported AC50 value of Cc1ccc(NC(=O)CN(C)CC(=O)Nc2cccc(F)c2)cc1[N+](=O)[O-] . 0.57 µM

If you can, please state the reported AC50 value of CCCn1c(NC(=O)c2ccc(Cl)c(S(=O)(=O)N3CCCC3)c2)nc2ccccc21 . 8.39 µM

If you can, please state the reported AC50 value of COc1ccc(CN2CCC(N(CCc3ccccc3)Cc3ccccc3)CC2)c(OC)c1 . 8.1 µM

If you can, please state the reported AC50 value of CC1CCC/C=C/C(=O)c2c(O)cc(O)cc2CC(=O)O1 (configuration not stated) . 4.12 µM

If you can, please state the reported AC50 value of Cc1onc(-c2ccccc2Cl)c1C(=O)N(C)C1CCCCC1 . 2.74 µM

If you can, please state the reported AC50 value of O=C(Nc1nc2cc3c(cc2s1)OCCO3)C1=COCCO1 . 2.17 µM

If you can, please state the reported AC50 value of CCCOc1ccc(C(=O)C(CN2CCCC2)c2ccccc2)cc1 (configuration not stated) . 4.84 µM

If you can, please state the reported AC50 value of Cc1c(C(=O)Nc2ccc(F)c(F)c2)oc2ccc(S(=O)(=O)N3CCCCC3)cc12 . 7.05 µM

If you can, please state the reported AC50 value of CC(C)NC(=O)C1CCN(C(=O)c2cc3sccc3n2Cc2ccc(F)cc2)CC1 . 5.05 µM

If you can, please state the reported AC50 value of Cc1cc(C)c(S(=O)(=O)N2Cc3ccccc3-n3nncc3C2)c(C)c1 . 4.36 µM

If you can, please state the reported AC50 value of Cc1cc(Cl)n2c(nc3ccccc32)c1C#N . 1.85 µM

If you can, please state the reported AC50 value of Cc1cc(Nc2cccc([N+](=O)[O-])c2)n2c(nc3ccccc32)c1C#N . 1.9 µM

If you can, please state the reported AC50 value of CCCCCCn1c(NCC)nc2c1c(=O)n(C)c(=O)n2C . 0.834 µM

If you can, please state the reported AC50 value of COc1ccc(C(=O)NCCN(C)C)c2nc3ccccc3cc12 . 5.78 µM

If you can, please state the reported AC50 value of CCOC(=O)c1cccc(NC2c3ccccc3C(=O)N2Cc2ccco2)c1 (configuration not stated) . 4.26 µM

If you can, please state the reported AC50 value of OC(c1cc(-c2ccc(C(F)(F)F)cc2)nc(C(F)(F)F)c1)C1CCCCN1 (configuration not stated) . 4.73 µM

If you can, please state the reported AC50 value of CC[C@@H](C)[C@H](NC(=O)OC(C)(C)C)c1nnc(S(=O)(=O)Cc2cc(C)ccc2C)o1 . 5.77 µM
